System: Hs-578T
Assay Method Text: NCI tumour cell line growth inhibition, 48 h
Active and inactive are the calls of the source. Cut-off read from the data, not from the text of the source: active = GI50 up to about 1.1 µM and inactive = higher.
I'd be grateful if you could share measured GI50 for these entries.

Sample answers from the record:
Compound	Measured On	Measured Value
O=C1CN(c2cccc(C(F)(F)F)c2)C(=O)CN1NCNN1CC(=O)N(c2cccc(C(F)(F)F)c2)CC1=O	Hs-578T	> 100 µM (inactive)
CC(=O)N1CN2C(=O)CCC2c2ccccc21 (stereo not given)	Hs-578T	> 100 µM (inactive)
CCCC(=O)OCC1OC(n2cc(F)c(=O)[nH]c2=O)C(F)C1OC(=O)CCC (stereo not given)	Hs-578T	26.5 µM (inactive)
Cc1ncc([N+](=O)[O-])n1CCNC(=O)Cn1c([N+](=O)[O-])cnc1C	Hs-578T	> 100 µM (inactive)

# next compound below
Looking for the measured GI50 of CN(C)c1ccc(C2SCC(=O)N2c2ccc(Oc3ccc(Cl)cc3)c(Cl)c2)cc1 (stereo not given) , can you help?
14.4 µM (inactive)
